Field: inhibition of growth at 10 µM. Provide a value for each of the compounds that follow.
Test system: SK-OV-3
Experiment: Cytotoxicity against human SKOV3 cells assessed as age growth inhibition at 10 uM after 48 hrs by sulforhodamine B assay
Type: functional
Conditions: SK-OV-3, 48 h, read-out: GI
Give the value; after it, write the unit.

Dear colleague, could you send me inhibition of growth at 10 µM for each of the items below? Thanks.
1. CC1(C)CCC[C@@]2(C)C1=C[C@H]1C(=O)O[C@H](c3ccco3)[C@H]12
2. CC1(C)CCC[C@@]2(C)C1=C[C@H]1C(=O)O[C@H](c3ccc(Br)cc3)[C@H]12
3. Cc1ccc([C@H]2OC(=O)[C@@H]3C=C4C(C)(C)CCC[C@]4(C)[C@H]23)cc1
4. CC1(C)CCC[C@@]2(C)C1=C[C@H]1C(=O)O[C@H](c3ccccc3)[C@H]12

Result string:
1. 6%
2. 6%
3. 19%
4. 20%
